Every entry's value here was drawn from ChEMBL document CHEMBL1145084.

pIC50: −log10 of the molar value.
Target or system Coagulation factor X (Homo sapiens); recorded quantity pIC50.
test_readout: pIC50

• N=C(N)NCCC[C@H](NC(=O)[C@H](CO)NC(=O)[C@@H](Cc1ccccc1)NS(=O)(=O)Cc1ccccc1)C(=O)c1nccs1 = 6.62
• Cc1cccc(C)c1C[C@H](NC(=O)[C@@H](Cc1ccccc1)NS(=O)(=O)Cc1ccccc1)C(=O)N[C@@H](CCCN=C(N)N)C(=O)c1nccs1 = 5.56
• N=C(N)NCCC[C@H](NC(=O)[C@H](CC(=O)OC1CCCCC1)NC(=O)[C@@H](Cc1ccccc1)NS(=O)(=O)Cc1ccccc1)C(=O)c1nccs1 = 5.90
